test system: SF-295 CNS; assay: NCI tumour cell line growth inhibition, 48 h; in the data active = GI50 below about 0.43 µM; inactive = the rest
Outcomes: yes for active, no for inactive

INSERT INTO results (smiles_structure, class) VALUES
  ('[Cl][Hg][c]1ccc(Cl)s1', 'no'),
  ('Cc1cc(Nc2ncc3c(n2)N(C)C(=O)N(c2cc(NC(=O)c4cccc(C(F)(F)F)c4)ccc2C)C3)n(C)n1', 'yes'),
  ('CC/C(=C(/c1ccc(O)cc1)c1ccc(OCCN)cc1)c1ccccc1', 'no'),
  ('Cn1nc(C(F)(F)F)cc1-c1c[nH]c(OCc2ccc(Cl)cc2)c(-c2ccc(Cl)c(C(F)(F)F)c2)c1=O', 'no'),
  ('COc1cc2ncnc(Nc3cccc(Cl)c3F)c2cc1OC(=O)N1CCN(C)C[C@H]1C', 'no');
